Assay: Measurement of Log P values by HPLC on reversed phase columns (EEC directive 79/831 Annex V.A8)
Format: physicochemical
Conditions: Table 1, compounds of formula (I); method [a]: LC-UV, acidic range, 0.1% formic acid in water and acetonitrile
Please assign Criterion not met whenever chromatographic logP is at or above 4, and Criterion met whenever it is below.

molecule	assigned-category
Cc1cc([C@@H]2CON=C(c3c(Sc4ccccc4C)nnc(C)c3C)N2)c(C)s1 (racemic)	Criterion met
Cc1cc([C@@H]2CON=C(c3c(Sc4ccc(F)cc4F)nnc(C)c3C)N2)c(C)s1 (racemic)	Criterion met
FC(F)(F)c1cccc(Sc2nnc(Cl)cc2C2=NOC[C@H](Cc3ccc(Cl)cc3Cl)N2)c1 (racemic)	Criterion not met
Cc1ccc(C[C@@H]2CON=C(c3cc(Cl)nnc3Sc3ccc(C(F)(F)F)cc3)N2)c(C)c1 (racemic)	Criterion not met
Cc1ccc([C@@H]2CON=C(c3c(Sc4cccc(OC(F)(F)F)c4)nnc(C)c3C)N2)s1 (racemic)	Criterion met
Cc1cc([C@H]2CON=C(c3c(Sc4ccc(F)c(Cl)c4)nnc(C)c3C)N2)c(C)s1 (racemic)	Criterion met

----------
Assay: Measurement of Log P values by HPLC on reversed phase columns (EEC directive 79/831 Annex V.A8)
Format: physicochemical
Details: Table 4, intermediates of formula (29); method [a]: LC-UV, acidic range, 0.1% formic acid in water and acetonitrile
property: chromatographic logP

compound	readout-number
NC(=NO)c1c(Br)nnc2ccccc12 [Compound 29-02]	0.31

----------
Measured chromatographic logP, listed per entry.
Experiment: Measurement of Log P values by HPLC on reversed phase columns (EEC directive 79/831 Annex V.A8)
Type: physicochemical
Details: Table 1, compounds of formula (I); method [a]: LC-UV, acidic range, 0.1% formic acid in water and acetonitrile

molecule	chromatographic logP
Clc1cccc(Sc2cnc(Cl)cc2C2=NOC[C@@H](Cc3ccc(Cl)cc3Cl)N2)c1 (racemic) [Compound I-008]	4.9
COc1cccc(Sc2cnc3ccccc3c2C2=NOC[C@H](Cc3ccc(C)cc3C)N2)c1 (racemic) [Compound I-012]	4.06
Cc1ccc(CC2CON=C(c3cc(Cl)nnc3Sc3cccc(C(F)(F)F)c3)N2)c(C)c1 (racemic) [Compound I-017]	5.27
Cc1cccc(Sc2nnc3ccccc3c2C2=NOC[C@H](c3ccc(C)s3)N2)c1 (racemic) [Compound I-062]	3.47

----------
Assay: Measurement of Log P values by HPLC on reversed phase columns (EEC directive 79/831 Annex V.A8)
Type: physicochemical
Details: Table 1, compounds of formula (I); method [a]: LC-UV, acidic range, 0.1% formic acid in water and acetonitrile

compound	chromatographic logP
Cc1cccc(Sc2cnc3ccccc3c2C2=NOC[C@H](Cc3ccc(C)cc3C)N2)c1 (racemic)	4.37
Cc1cc([C@H]2CON=C(c3c(Sc4cc(Cl)cc(Cl)c4)nnc(C)c3C)N2)c(C)s1 (racemic)	4.04
Cc1cc([C@H]2CON=C(c3c(Sc4cccc5ccccc45)nnc(C)c3C)N2)c(C)s1 (racemic)	3.67
FC(F)(F)c1cccc(Sc2cnc(Cl)cc2C2=NOC[C@@H](Cc3ccc(Cl)cc3Cl)N2)c1 (racemic)	4.97

----------
Assay: Measurement of Log P values by HPLC on reversed phase columns (EEC directive 79/831 Annex V.A8)
Format: physicochemical
Details: Table 1, compounds of formula (I); method [a]: LC-UV, acidic range, 0.1% formic acid in water and acetonitrile
property: chromatographic logP

compound	property	readout-number
Cc1ccc([C@H]2CON=C(c3c(Sc4cccc(Cl)c4Cl)nnc4ccccc34)N2)s1 (racemic)	chromatographic logP	3.8
Cc1ccc([C@H]2CON=C(c3c(Sc4cccc(F)c4)nnc4ccccc34)N2)s1 (racemic)	chromatographic logP	3.27
Cc1ccc(C[C@H]2CON=C(c3nc(C)ncc3Sc3cccc(C(F)(F)F)c3)N2)c(Cl)c1 (racemic)	chromatographic logP	5.28
FC(F)(F)c1ccc(Sc2nnc(Cl)cc2C2=NOC[C@@H](Cc3ccc(Br)cc3Cl)N2)cc1 (racemic)	chromatographic logP	5
Cc1ccc([C@H]2CON=C(c3c(Sc4cccc(Cl)c4)nnc4ccccc34)N2)s1 (racemic)	chromatographic logP	3.61
Clc1ccc(C[C@@H]2CON=C(c3cc(Cl)nnc3Sc3cccc(Br)c3)N2)c(Cl)c1 (racemic)	chromatographic logP	4.88
Cc1ccc([C@@H]2CON=C(c3c(Sc4ccc(F)cc4F)nnc(C)c3C)N2)s1 (racemic)	chromatographic logP	2.95

Attribution: patent US20250042886A1
